meta.source: patent US9975854B2

- TESTED ON: κ-opioid receptor (Homo sapiens (Human))
- ASSAY DETAILS: κ-opioid receptor [35S]GTPγS functional assay, HEK-293 or CHO cells
- Assay type: biochemical
- SETTINGS: bound given in uM

[
  {
    "CHEMICAL STRUCTURE": "CN1CC[C@@]2(C)c3cc(O)ccc3C[C@@H]1[C@@H]2NCCc1ccc(S(C)(=O)=O)cc1",
    "EC50": "> 20 µM"
  }
]

* * *

// values below are reported EC50
- TESTED ON: μ-opioid receptor (Homo sapiens (Human))
- ASSAY DETAILS: μ-opioid receptor [35S]GTPγS functional assay, HEK-293 or CHO cells
- Assay type: biochemical
- SETTINGS: HEK-293 or CHO cells; bound given in uM; read-out: GTPγS μ EC50
- Protocol: [^35S]GTPγS functional assays were conducted using freshly thawed μ-receptor membranes prepared in-house from a cell line expressing recombinant opioid receptor in a HEK-293, CHO or U-2 OS cell background, or purchased from a commercial source (Perkin Elmer, Shelton, Conn.; or DiscovRx, Fremont, Calif.). […] BetaScint scintillation cocktail (Perkin Elmer, Shelton, Conn.) was added (50 μl/well) and plates were counted using a Packard Top-Count for 1 min/well. […]
REPORTED ENDPOINT: EC50

[
  {
    "MOLECULE": "CN1CC[C@@]2(C)c3cc(O)ccc3C[C@@H]1[C@H]2NCCCCNC(=O)OC(C)(C)C",
    "RESULT": "> 20 µM"
  },
  {
    "MOLECULE": "CN1CC[C@@]2(C)c3cc(O)ccc3C[C@@H]1[C@@H]2NC(=O)CC(=O)Nc1ccc(F)cc1F",
    "RESULT": "> 20 µM"
  },
  {
    "MOLECULE": "CN1CC[C@@]2(C)c3cc(C(=O)O)ccc3C[C@@H]1[C@H]2NCCc1ccc(S(C)(=O)=O)cc1",
    "RESULT": "> 20 µM"
  },
  {
    "MOLECULE": "CN1CC[C@@]2(C)c3cc(C(N)=O)ccc3C[C@@H]1[C@H]2N(C)C(=O)Nc1ccc(C#N)cc1",
    "RESULT": "> 20 µM"
  },
  {
    "MOLECULE": "CN1CC[C@@]2(C)c3cc(O)ccc3C[C@@H]1[C@H]2N(C)C(=O)Cc1ccc(S(C)(=O)=O)cc1",
    "RESULT": "> 20 µM"
  },
  {
    "MOLECULE": "CN1CCC2(C)c3cc(O)ccc3C[C@@H]1C2NC(=O)Cc1ccccc1 (stereo in doubt)",
    "RESULT": "> 20 µM"
  },
  {
    "MOLECULE": "CN1CCC2(C)c3cc(O)ccc3C[C@@H]1C2NS(=O)(=O)Cc1ccccc1 (stereo in doubt)",
    "RESULT": "> 20 µM"
  }
]

* * *

- TESTED ON: UniProt:P35372
- ASSAY DETAILS: μ-opioid receptor [35S]GTPγS functional assay, HEK-293 or CHO cells
- Format: biochemical
- SETTINGS: HEK-293 or CHO cells; relative to DAMGO
Think of 40% as a floor: if Emax stands on it or above, it is 1 (yes); beneath it, 0 (no).

[
  {
    "COMPOUND": "CN1CC[C@@]2(C)c3cc(O)ccc3C[C@@H]1[C@@H]2N(C)C(=O)Nc1nc2ccc(F)cc2s1",
    "ASSIGNED CLASS": "0 (no)"
  },
  {
    "COMPOUND": "CN1CC[C@@]2(C)c3cc(O)ccc3C[C@@H]1[C@@H]2N(C)C(=O)Cc1ccc(S(C)(=O)=O)cc1",
    "ASSIGNED CLASS": "1 (yes)"
  },
  {
    "COMPOUND": "CCn1c(NC(=O)N(C)[C@H]2[C@H]3Cc4ccc(O)cc4[C@]2(C)CCN3C)nc2ccccc21",
    "ASSIGNED CLASS": "1 (yes)"
  },
  {
    "COMPOUND": "CN1CC[C@@]2(C)c3cc(C(=O)O)ccc3C[C@@H]1C2(O)O",
    "ASSIGNED CLASS": "0 (no)"
  },
  {
    "COMPOUND": "CN1CC[C@@]2(C)c3cc(O)ccc3C[C@@H]1[C@H]2NCCC1(O)CCCCC1",
    "ASSIGNED CLASS": "1 (yes)"
  },
  {
    "COMPOUND": "CN1CC[C@]2(C)c3cc(O)ccc3CC1[C@@H]2C(=O)N1CCCCC1",
    "ASSIGNED CLASS": "1 (yes)"
  },
  {
    "COMPOUND": "CN1CC[C@@]2(C)c3cc(C(N)=O)ccc3C[C@@H]1[C@@H]2NCCc1ccccc1",
    "ASSIGNED CLASS": "1 (yes)"
  },
  {
    "COMPOUND": "CN1CC[C@@]2(C)c3cc(O)ccc3C[C@@H]1[C@H]2NCCCc1ccccc1",
    "ASSIGNED CLASS": "1 (yes)"
  },
  {
    "COMPOUND": "CN1CCC2(C)c3cc(O)ccc3C[C@@H]1C2NC(=O)Cc1ccsc1 (stereo in doubt)",
    "ASSIGNED CLASS": "0 (no)"
  },
  {
    "COMPOUND": "CCn1c(NC(=O)N(C)[C@H]2[C@H]3Cc4ccc(OC)cc4[C@]2(C)CCN3C)nc2ccccc21",
    "ASSIGNED CLASS": "1 (yes)"
  },
  {
    "COMPOUND": "CN1CC[C@@]2(C)c3cc(O)ccc3C[C@@H]1[C@@H]2NC(=O)Cc1ccc(S(C)(=O)=O)cc1",
    "ASSIGNED CLASS": "0 (no)"
  },
  {
    "COMPOUND": "CN1CC[C@@]2(C)c3cc(O)ccc3C[C@@H]1[C@@H]2NCC1(O)CCCCC1",
    "ASSIGNED CLASS": "0 (no)"
  },
  {
    "COMPOUND": "CN1CC[C@@]2(C)c3cc(O)ccc3C[C@@H]1[C@@H]2N(CCc1ccc(F)cc1)CC(=O)O",
    "ASSIGNED CLASS": "1 (yes)"
  },
  {
    "COMPOUND": "CN1CCC2(C)c3cc(O)ccc3C[C@@H]1C2NS(=O)(=O)Cc1ccccc1 (stereo in doubt)",
    "ASSIGNED CLASS": "0 (no)"
  },
  {
    "COMPOUND": "CN1CC[C@@]2(C)c3cc(C(N)=O)ccc3C[C@@H]1C2(O)O",
    "ASSIGNED CLASS": "0 (no)"
  },
  {
    "COMPOUND": "CN1CC[C@@]2(C)c3cc(O)ccc3C[C@@H]1[C@@H]2NCCc1ccc(S(C)(=O)=O)cc1",
    "ASSIGNED CLASS": "0 (no)"
  }
]

* * *

- TESTED ON: μ-opioid receptor (Homo sapiens (Human))
- ASSAY DETAILS: μ-opioid receptor [35S]GTPγS functional assay, HEK-293 or CHO cells
- Type: biochemical
- SETTINGS: HEK-293 or CHO cells; read-out: GTPγS μ EC50
pEC50: −log10 of the molar value.

[
  {
    "COMPOUND": "CC(C)CS(=O)(=O)N1CCC(CN(C)C2[C@H]3Cc4ccc(O)cc4C2(C)CCN3C)CC1 (stereo in doubt) [Compound 59]",
    "pEC50": 7.28
  },
  {
    "COMPOUND": "CCN(CCc1ccc(S(C)(=O)=O)cc1)[C@H]1[C@H]2Cc3ccc(O)cc3[C@]1(C)CCN2C [Compound 98]",
    "pEC50": 9.19
  },
  {
    "COMPOUND": "CN1CC[C@@]2(C)c3cc(O)ccc3C[C@@H]1[C@H]2NCCc1ccc(S(C)(=O)=O)cc1 [Compound 11]",
    "pEC50": 7.45
  },
  {
    "COMPOUND": "CCN(C(=O)Nc1ccc(C#N)cc1)[C@H]1[C@H]2Cc3ccc(O)cc3[C@]1(C)CCN2C [Compound 91]",
    "pEC50": 7.33
  }
]

* * *

Each entry below carries its recorded pEC50.
- TESTED ON: μ-opioid receptor (Homo sapiens (Human), UniProt P35372)
- ASSAY DETAILS: μ-opioid receptor [35S]GTPγS functional assay, U-2 OS cells
- Format: biochemical
pEC50: −log10 of the molar value.
REPORTED ENDPOINT: pEC50

[
  {
    "CHEMICAL STRUCTURE": "CN1CC[C@@]2(C)c3cc(O)ccc3C[C@@H]1[C@@H]2N(C)CC(=O)Nc1nc2ccc(F)cc2s1",
    "TESTED ON": "μ-opioid receptor (Homo sapiens (Human), UniProt P35372)",
    "NUMERIC VALUE": 6.27
  },
  {
    "CHEMICAL STRUCTURE": "CN1CC[C@@]2(C)c3cc(O)ccc3C[C@@H]1[C@H]2NCCC1(O)CCCCC1",
    "TESTED ON": "μ-opioid receptor (Homo sapiens (Human), UniProt P35372)",
    "NUMERIC VALUE": 7.47
  },
  {
    "CHEMICAL STRUCTURE": "CN1CC[C@@]2(C)c3cc(O)ccc3C[C@@H]1[C@@H]2N(C)C(=O)CC(=O)Nc1ccc(F)cc1F",
    "TESTED ON": "μ-opioid receptor (Homo sapiens (Human), UniProt P35372)",
    "NUMERIC VALUE": 9.48
  }
]
